Tested on: Mycobacterium tuberculosis
Assay: Cornell M. t heat shock assay; further: in the data most compounds retested in dose-response had high values
Format: functional, organism-based
Set-up: dose or concentration left out as unconfirmed
Out of some 69,000 compounds screened, about 950 (1.4%) showed an effect of 50% or more. Only a selection was taken, and strong results are over-represented in it overall.
recorded_endpoint: Percent Effect (%)
Numbers only here, please. The scale is %.

O=C(O)C(F)(F)F.O=C1CC[C@]2(CC[C@@H](NC(=O)NCc3cccnc3)CC2)N1: 2.106

Percent Effect lookup needed for Cc1cc(C)c(CNC(=O)NCC2CCOC2)c(=O)[nH]1 (stereo not given) , thanks.
-20.09

I am curious: what Percent Effect value has been reported for Cc1cccc(CN2CCC(NCC3CNc4cc(C)nn4C3)CC2)c1 (stereo not given) ?
108.8

* * *

System: Mycobacterium tuberculosis
Test: Cornell M. t heat shock assay; further: in the data most compounds retested in dose-response had high values
Format: functional, organism-based
Design: dose or concentration left out as unconfirmed
Among all 69,000 compounds or so, about 950 (1.4%) showed an effect of 50% or more. This is one part of a sample in which strong results are shown more often than they occur.
recorded_endpoint: Percent Effect (%)
Kindly answer with a numeric value in %, unit omitted.

Look over these answered cases.
Cc1nn(C)c(C)c1C1CCCN1Cc1nc(N)c2ccccc2n1 (stereo unspecified): -13.27
COc1cccc(S(=O)(=O)NC(=O)CC2CCCC2)c1: 1.853
c1ncn(CC2CCCN2Cc2cn3ccsc3n2)n1 (stereo unspecified): -23.29
Cc1nc(CN2C(=O)C[C@H]3[C@H]2CCN3CC2CCOC2)cs1.O=C(O)C(F)(F)F (stereo partly specified): -4.028
Cc1cc(C)n(CC2CCCN2Cc2nc(N)c3ccccc3n2)n1 (stereo unspecified): 96.02

Could you tell me which Percent Effect is on file for Cc1nc(C)n(CC2CCCN2Cc2nc(N)c3ccccc3n2)n1 (stereo unspecified) ?
90.98

* * *

Tested on: Mycobacterium tuberculosis
Assay: Cornell M. t heat shock assay; further: in the data most compounds retested in dose-response had high values
Assay type: functional, organism-based
Design: dose or concentration left out as unconfirmed
Screen size: about 69,000 compounds; about 950 (1.4%) showed an effect of 50% or more. Many of the other results were omitted from the sample, so strong results are more common in it than they were.
recorded_endpoint: Percent Effect

Past entries and their recorded results:
CCCNC(=O)c1cn(C(C)(C)C)c2ncccc12: 52.59%
Cn1cc(N2C(=O)CC[C@@H]3[C@H]2CCN3CCc2ccccc2)cn1.O=C(O)C(F)(F)F.O=C(O)C(F)(F)F: -25.96%
CNC(=O)CN1CCOCC12CCN(C(=O)c1ccccc1)CC2.O=C(O)C(F)(F)F: -17.78%

Requested field: Percent Effect. Item: CCc1nnc2n1CC(CNCc1ccncc1)CC2 (configuration not stated)
102.6%

Which Percent Effect value belongs to COCC(C)NC(=O)c1cn(C(C)(C)C)c2ncccc12 (configuration not stated) ?
-8.611%

Please look up its Percent Effect: CCS(=O)(=O)NCC(=O)N1CC2(CCCC2)c2c(F)cccc21
17.06%

Give its Percent Effect value. Item: COCCN(CCOC)C(=O)c1cn(C(C)(C)C)c2ncccc12
20.52%

Give the measured Percent Effect of CCOC1COC2(CCN(Cc3ccc(C)cc3)CC2)C1.O=C(O)C(F)(F)F (configuration not stated) .
-2.769%

* * *

Test system: Mycobacterium tuberculosis
Experiment: Cornell M. t heat shock assay; further: in the data most compounds retested in dose-response had high values
Assay type: functional, organism-based
Design: dose or concentration left out as unconfirmed
The campaign covered roughly 69,000 compounds. About 950 (1.4%) showed an effect of 50% or more. The sample as a whole holds a higher share of strong results than the screen did.
// classify: if (Percent Effect < 10%) y else n

// known answers, use as guide
O=C1CCNc2ccccc2CN1Cc1ccco1: n
O=C(O)C(F)(F)F.O=C1COC2(CCN(C(=O)c3ccco3)CC2)CN1Cc1ccccn1: y

API: query returns whether the molecule falls strictly under 10% in Percent Effect. Query: COCCn1cncc1CN1CCCC(C)(c2ccccc2)C1 (stereo unspecified)
n

is_below(Percent Effect, 10%) for O=C(CCc1ccccc1F)NS(=O)(=O)c1ccc2c(c1)OCCO2 ?
y

Quick check: does CN(C)C(=O)N1C[C@@H]2CC[C@H](C1)N(C(=O)c1cccc(N(C)C)c1)C2 have Percent Effect under 10%?
y

Please indicate whether the reported Percent Effect of COc1ccc(-c2cc(C3CCNCC3)ccn2)cc1.Cl is strictly below 10%.
y

Is Percent Effect of NC(=O)Cc1ccc(OCc2noc(C(=O)N3CCCC3)n2)cc1 strictly below 10%?
y

Percent Effect strictly < 10% for this molecule? Cl.c1cc(CNCc2ccc(Cn3cncn3)cc2)c2c(c1)OCCO2
y
